Record form. Attribute: kinase still bound, per cent of control. Fill in for each entry.
# Experimental Target: AKT1 (human) (UniProt P31749)
# Sequence (P31749 whole entry, looked up): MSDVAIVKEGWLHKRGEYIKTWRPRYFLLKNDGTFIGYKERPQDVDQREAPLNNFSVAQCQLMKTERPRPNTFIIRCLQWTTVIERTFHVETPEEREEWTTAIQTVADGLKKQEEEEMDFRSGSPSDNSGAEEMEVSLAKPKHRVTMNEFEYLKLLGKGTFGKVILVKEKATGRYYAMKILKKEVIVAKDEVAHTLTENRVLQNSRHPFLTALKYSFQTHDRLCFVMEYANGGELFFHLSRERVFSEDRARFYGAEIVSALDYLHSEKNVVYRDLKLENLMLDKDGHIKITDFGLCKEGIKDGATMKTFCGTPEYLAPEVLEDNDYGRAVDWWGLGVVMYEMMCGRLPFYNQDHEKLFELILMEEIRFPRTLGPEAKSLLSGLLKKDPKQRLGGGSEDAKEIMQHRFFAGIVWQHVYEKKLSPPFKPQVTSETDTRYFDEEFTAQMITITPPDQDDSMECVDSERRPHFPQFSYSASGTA
# Measurement Protocol: KINOMEscan competition binding
# Experimental Context: compound 10.0 µM
Numbers only, in %.

Value sought for every listed molecule: kinase still bound, per cent of control.
1. O=C1NC(=O)/C(=C/c2ccc3nccc(-c4ccncc4)c3c2)S1
2. N#CCNC(=O)c1ccc(-c2ccnc(Nc3ccc(N4CCOCC4)cc3)n2)cc1

Response:
1: 90; 2: 100

Value sought for every listed molecule: kinase still bound, per cent of control.
1. NC(=O)Nc1cc(-c2cccc(F)c2)sc1C(=O)N[C@@H]1CCCNC1
2. CCN(CC)CCCCNc1ncc2cc(-c3cc(OC)cc(OC)c3)c(NC(=O)NC(C)(C)C)nc2n1
3. CNC(=O)c1ccc(Nc2cc(Nc3ccccc3S(=O)(=O)C(C)C)c3cc[nH]c3n2)nc1
4. CCN1CCN(C(=O)Cc2ccc(Nc3ncc(F)c(Nc4ccc(C(=O)Nc5ccccc5Cl)cc4)n3)cc2)CC1
5. CCN(CC)CCCCNc1ncc2c(n1)N(C)C(=O)N(c1c(Cl)c(OC)cc(OC)c1Cl)C2
6. CN(C)C/C=C/C(=O)Nc1ccc(C(=O)Nc2cccc(Nc3nccc(-c4cccnc4)n3)c2)cc1
7. COc1cc2ncn(-c3cc(OCc4ccccc4C(F)(F)F)c(C(N)=O)s3)c2cc1OC

Response:
1: 3.2; 2: 100; 3: 100; 4: 100; 5: 100; 6: 100; 7: 100

====

# Experimental Target: TAOK2 (human) (UniProt Q9UL54)
# Sequence (Q9UL54 whole entry, looked up): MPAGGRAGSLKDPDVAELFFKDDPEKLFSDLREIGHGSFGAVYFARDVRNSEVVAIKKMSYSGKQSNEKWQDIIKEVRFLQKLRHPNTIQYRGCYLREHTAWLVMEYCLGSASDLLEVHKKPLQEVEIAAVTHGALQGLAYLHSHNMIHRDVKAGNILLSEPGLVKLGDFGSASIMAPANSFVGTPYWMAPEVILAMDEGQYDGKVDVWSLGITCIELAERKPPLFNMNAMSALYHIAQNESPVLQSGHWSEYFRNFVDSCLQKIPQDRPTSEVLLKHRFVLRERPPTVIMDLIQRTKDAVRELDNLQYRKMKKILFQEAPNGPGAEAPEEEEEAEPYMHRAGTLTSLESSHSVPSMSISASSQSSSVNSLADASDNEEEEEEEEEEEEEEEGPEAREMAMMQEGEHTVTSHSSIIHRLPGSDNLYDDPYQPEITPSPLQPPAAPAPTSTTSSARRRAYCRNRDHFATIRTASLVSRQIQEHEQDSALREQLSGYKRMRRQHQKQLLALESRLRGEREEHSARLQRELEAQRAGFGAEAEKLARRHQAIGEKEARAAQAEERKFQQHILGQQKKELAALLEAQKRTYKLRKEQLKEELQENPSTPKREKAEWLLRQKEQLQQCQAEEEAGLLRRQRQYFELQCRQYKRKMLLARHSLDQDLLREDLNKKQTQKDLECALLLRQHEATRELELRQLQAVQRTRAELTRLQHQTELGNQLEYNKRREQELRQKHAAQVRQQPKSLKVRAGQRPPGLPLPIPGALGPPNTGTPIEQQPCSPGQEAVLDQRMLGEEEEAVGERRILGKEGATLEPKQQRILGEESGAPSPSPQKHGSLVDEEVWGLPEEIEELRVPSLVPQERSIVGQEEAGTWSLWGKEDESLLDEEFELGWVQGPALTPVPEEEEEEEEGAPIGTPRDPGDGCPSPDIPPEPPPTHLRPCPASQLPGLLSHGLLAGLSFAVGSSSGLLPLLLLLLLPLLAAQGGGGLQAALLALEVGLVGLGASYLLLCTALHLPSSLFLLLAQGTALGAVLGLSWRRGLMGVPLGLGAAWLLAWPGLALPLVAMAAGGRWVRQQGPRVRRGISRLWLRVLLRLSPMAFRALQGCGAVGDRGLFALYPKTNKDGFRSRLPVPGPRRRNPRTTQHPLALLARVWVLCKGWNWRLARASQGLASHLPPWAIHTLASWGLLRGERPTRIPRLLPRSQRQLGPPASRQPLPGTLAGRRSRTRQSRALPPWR
# Measurement Protocol: KINOMEscan competition binding
# Experimental Context: compound 10.0 µM
Measured Endpoint: kinase still bound, per cent of control (%)
Give bare numbers, in %.

In the examples that follow, each entry is paired with its recorded kinase still bound, per cent of control.
>  <Smiles Notation>
CNC(=O)c1cc(Oc2ccc(NC(=O)Nc3ccc(Cl)c(C(F)(F)F)c3)cc2)ccn1

>  <Readout Value>
1.6

$$$$
>  <Smiles Notation>
CCN1CCN(C(=O)Cc2ccc(Nc3ncc(F)c(Nc4ccc(C(=O)Nc5ccccc5Cl)cc4)n3)cc2)CC1

>  <Readout Value>
56

$$$$
>  <Smiles Notation>
COc1cc2ncn(-c3cc(OCc4ccccc4C(F)(F)F)c(C(N)=O)s3)c2cc1OC

>  <Readout Value>
100

$$$$
>  <Smiles Notation>
O=C(Nc1cccc(Nc2ncc(Br)c(NCCc3cnc[nH]3)n2)c1)N1CCCC1

>  <Readout Value>
5.3

$$$$
>  <Smiles Notation>
N#CCNC(=O)c1ccc(-c2ccnc(Nc3ccc(N4CCOCC4)cc3)n2)cc1

>  <Readout Value>
100

$$$$

Lab note: next compound to report on.
Entry `COc1cc(C(=O)N2CCC(N3CCN(C)CC3)CC2)ccc1Nc1ncc2c(n1)N(C)c1ccccc1C(=O)N2C` ; kinase still bound, per cent of control = 65

====

# Experimental Target: MATK (human)
# Measurement Protocol: KINOMEscan competition binding
# Experimental Context: compound 10.0 µM
Measured Endpoint: kinase still bound, per cent of control
# output: number + unit

Value sought for every listed molecule: kinase still bound, per cent of control.
1. COc1cc2ncnc(-n3nc(-c4ccccn4)nc3N)c2cc1OC
2. CCN1CCN(C(=O)Cc2ccc(Nc3ncc(F)c(Nc4ccc(C(=O)Nc5ccccc5Cl)cc4)n3)cc2)CC1
3. CNC(=O)c1cc(Oc2ccc(NC(=O)Nc3ccc(Cl)c(C(F)(F)F)c3)cc2)ccn1
4. COc1cc(C(=O)N2CCC(N3CCN(C)CC3)CC2)ccc1Nc1ncc2c(n1)N(C)c1ccccc1C(=O)N2C
5. CCN(CC)CCCCNc1ncc2c(n1)N(C)C(=O)N(c1c(Cl)c(OC)cc(OC)c1Cl)C2
6. COc1ccc(N(C(=O)Oc2c(C)cccc2C)c2ccnc(Nc3ccc(N4CCN(C)CC4)cc3)n2)c(OC)c1

Response:
["57%", "100%", "100%", "100%", "100%", "67%"]

Value sought for every listed molecule: kinase still bound, per cent of control.
1. COc1cc2ncn(-c3cc(OCc4ccccc4C(F)(F)F)c(C(N)=O)s3)c2cc1OC
2. CS(=O)(=O)N1CCN(Cc2cc3nc(-c4cccc5[nH]ncc45)nc(N4CCOCC4)c3s2)CC1
3. N#CCNC(=O)c1ccc(-c2ccnc(Nc3ccc(N4CCOCC4)cc3)n2)cc1
4. O=C1NC(=O)/C(=C/c2ccc3nccc(-c4ccncc4)c3c2)S1
5. COCC(=O)NC/C=C/c1ccc2ncnc(Nc3ccc(Oc4ccc(C)nc4)c(C)c3)c2c1
6. O=C(Nc1cccc(Nc2ncc(Br)c(NCCc3cnc[nH]3)n2)c1)N1CCCC1
7. NC(=O)Nc1cc(-c2cccc(F)c2)sc1C(=O)N[C@@H]1CCCNC1

Response:
85%
100%
85%
50%
100%
40%
34%

Value sought for every listed molecule: kinase still bound, per cent of control.
1. C[C@@H](Oc1cc(-c2cnn(C3CCNCC3)c2)cnc1N)c1c(Cl)ccc(F)c1Cl
2. C=CC(=O)Nc1cc(-n2c(=O)ccc3cnc4ccc(-c5cn[nH]c5)cc4c32)ccc1C
3. CN(C)C/C=C/C(=O)Nc1ccc(C(=O)Nc2cccc(Nc3nccc(-c4cccnc4)n3)c2)cc1
4. O=c1cc(N2CCOCC2)oc2c(-c3cccc4c3sc3ccccc34)cccc12

Response:
1. 64%
2. 100%
3. 91%
4. 99%

Entry `COc1cc(N2CCN(C)CC2)ccc1Nc1ncc2c(n1)N(C)c1ccccc1C(=O)N2C` ; kinase still bound, per cent of control = 100%
